- Test system: Jurkat cells
- test.protocol: Inhibition of Jurkat cell proliferation (CellTiter-Glo, 72 hours)
- Assay type: cell-based
- settings: Homo sapiens; Jurkat cells, 72 hours, CellTiter-Glo; read-out: Jurkat (IC50)
- Description: Select Jurkat cells in good growth condition and digest them with trypsin. Add fresh culture medium, mix thoroughly, and centrifuge at 1000 rpm for 5 minutes. Seed the cells into a 96-well plate at a density of 10,000 cells per well, and incubate overnight in a 37° C. incubator. […] After incubation, bring out the cell culture plate and equilibrate it to room temperature. […] Measure the luminescence using an Enspire plate reader. […]
pIC50: −log10 of the molar value.
measured.quantity: pIC50

CCOc1cncc(-c2ccc(NC(=O)C3(c4ccnc(NS(=O)(=O)C5CC5)n4)CCC(=CC4CCOCC4)CC3)nc2)n1 (stereo not shown) [Compound 32] : > 7.82
CCOc1cncc(-c2ccc(NC(=O)C3(c4ccnc(NS(=O)(=O)C5CC5)n4)CCC(=CC4CC(O)C4)CC3)nc2)n1 (stereo not shown) [Compound 59] : > 7.82
CCOc1cncc(-c2ccc(NC(=O)C3(c4ccnc(NS(=O)(=O)C5CC5)n4)CCC(=CCC4COC4)CC3)nc2)n1 (stereo not shown) [Compound 63] : > 7.82
CCOc1cncc(-c2ccc(NC(=O)C3(c4ccnc(NS(=O)(=O)C5CC5)n4)CCC(=CCN4CCCC4)CC3)nc2)n1 (stereo not shown) [Compound 16] : > 7.30
CCOc1cncc(-c2ccc(NC(=O)C3(c4ccnc(NS(=O)(=O)C5CC5)n4)CCC(=CCOC)CC3)nc2)n1 (single isomer, unassigned) [Compound 18] : > 7.30
CCOc1cncc(-c2ccc(NC(=O)C3(c4csc(NS(=O)(=O)C5CC5)n4)CCC(=C(F)F)CC3)nc2)n1 (stereo not shown) [Compound 73] : > 7.52

Attention now turns to another entry.
What the record says about CCOc1cncc(-c2ccc(NC(=O)C3(c4ccnc(N(C)S(=O)(=O)C5CC5)n4)CCC(=CCO)CC3)nc2)n1 (stereo not shown) [Compound 6] : pIC50 is > 7.00

----------
- test.protocol: in vivo
- Set-up: species or system SD rats
- settings: male, SD, rat, po, 3 mg/kg
measured.quantity: Tmax (min)
# value in min; strip the unit string

Completed entries (count: 3):
CCOc1cncc(-c2ccc(NC(=O)C3(c4ccnc(NS(=O)(=O)C5CC5)n4)CCC(=CCC4COC4)CC3)nc2)n1 (stereo not shown) : 140
CCOc1cncc(-c2ccc(NC(=O)C3(c4ccnc(NS(=O)(=O)C5CC5)n4)CCC(=CCO)CC3)nc2)n1 (stereo not shown) : 15
CCOc1cncc(-c2ccc(NC(=O)C3(c4ccnc(NS(=O)(=O)C5CC5)n4)CCC(=CC4CCOCC4)CC3)nc2)n1 (stereo not shown) : 49.8

Attention now turns to another entry.
What the record says about CCOc1cncc(-c2ccc(NC(=O)C3(c4ccnc(NS(=O)(=O)C5CC5)n4)CCC(=CC4COC4)CC3)nc2)n1 (stereo not shown) : Tmax is 15

----------
- System: Jurkat cells
- test.protocol: Inhibition of Jurkat cell proliferation (CellTiter-Glo, 72 hours)
- Type: cell-based
- settings: Homo sapiens; Jurkat cells, 72 hours, CellTiter-Glo; read-out: Jurkat (IC50)
pIC50: −log10 of the molar value.
Catalogue of pIC50 values

CCOc1cncc(-c2ccc(NC(=O)C3(c4ccnc(NS(=O)(=O)C5CC5)n4)CCC(=C(F)C4COC4)CC3)nc2)n1 (stereo not shown) : > 7.82
CCOc1cncc(-c2ccc(NC(=O)C3(c4ccnc(NS(=O)(=O)C5CC5)n4)CCC(=CF)CC3)nc2)n1 (stereo not shown) : > 7.52
CCOc1cncc(-c2ccc(NC(=O)C3(c4ccnc(NS(=O)(=O)C5CC5)n4)CCC4(CC3)CC(=C(F)F)C4)nc2)n1 (stereo not shown) : > 7.30

Attention now turns to another entry.
What the record says about CCOc1cncc(-c2ccc(NC(=O)C3(c4ccnc(NS(=O)(=O)C5CC5)n4)CCC(=CCCO)CC3)nc2)n1 (stereo not shown) : pIC50 is > 7.82
